# Test target: 3-hydroxy-3-methylglutaryl-coenzyme A reductase (Rattus norvegicus, UniProt P51639)
# Sequence (P51639 whole entry): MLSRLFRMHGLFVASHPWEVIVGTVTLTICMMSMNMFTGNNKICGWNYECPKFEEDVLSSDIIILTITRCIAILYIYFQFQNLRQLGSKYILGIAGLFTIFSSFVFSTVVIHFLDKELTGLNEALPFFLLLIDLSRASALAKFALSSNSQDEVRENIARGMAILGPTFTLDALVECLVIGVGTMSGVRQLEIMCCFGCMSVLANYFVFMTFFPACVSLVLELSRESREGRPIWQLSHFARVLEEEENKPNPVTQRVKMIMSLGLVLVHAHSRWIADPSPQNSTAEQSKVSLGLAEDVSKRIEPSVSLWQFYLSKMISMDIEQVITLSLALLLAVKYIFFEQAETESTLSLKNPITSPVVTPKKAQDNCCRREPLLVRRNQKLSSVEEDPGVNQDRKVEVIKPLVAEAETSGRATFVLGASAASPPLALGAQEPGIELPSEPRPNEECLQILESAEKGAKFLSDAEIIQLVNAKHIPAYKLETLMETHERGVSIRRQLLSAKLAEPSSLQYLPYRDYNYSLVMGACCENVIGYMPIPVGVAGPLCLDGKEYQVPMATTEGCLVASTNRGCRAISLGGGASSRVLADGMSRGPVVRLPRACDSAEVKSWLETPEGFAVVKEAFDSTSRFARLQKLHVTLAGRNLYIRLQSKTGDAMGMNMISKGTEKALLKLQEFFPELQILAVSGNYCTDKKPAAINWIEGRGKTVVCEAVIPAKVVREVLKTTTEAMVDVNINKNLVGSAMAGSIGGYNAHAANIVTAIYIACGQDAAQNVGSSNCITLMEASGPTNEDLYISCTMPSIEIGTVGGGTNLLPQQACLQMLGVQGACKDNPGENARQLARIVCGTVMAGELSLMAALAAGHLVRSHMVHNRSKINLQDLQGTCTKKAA
Let's look at some IC50 data for 3-hydroxy-3-methylglutaryl-coenzyme A reductase (Rattus norvegicus, UniProt P51639) that I collected from the literature.
Measurement name: IC50 (nM)

Field: example entries. Status: answers known.
{"Compound": "CC(C)=CC(=O)O[C@H]1C[C@@H](C)C=C2C=C[C@H](C)[C@H](CC[C@@H]3C[C@@H](O)CC(=O)O3)C21 (some centres not stated)", "Measurement unit": "nM", "IC50": 27.3}
{"Compound": "Cc1cc(C)c(/C=C/[C@@H]2C[C@@H](O)CC(=O)O2)c(-c2ccc(F)c(C)c2)c1 (stereo in doubt; 110)", "Measurement unit": "nM", "IC50": 7}

P: CC(C)CC(=O)O[C@H]1C[C@@H](C)C=C2C=C[C@H](C)[C@H](CC[C@@H]3C[C@@H](O)CC(=O)O3)C21 (some centres not stated)
Q: O=C1C[C@H](O)C[C@@H](/C=C/c2c(Cl)cc(Cl)cc2-c2ccc(F)cc2)O1 (stereo in doubt; 100)
R: COc1ccc(COc2cc(Cl)cc(Cl)c2/C=C/[C@@H]2C[C@@H](O)CC(=O)O2)cc1
S: CC(C)c1cc(-c2ccccn2)c(-c2ccc(F)cc2)n1CC[C@@H]1C[C@@H](O)CC(=O)O1
Task item: Hello, I need these entries ordered by IC50, highest reading first. Thanks! Provide the labels, sequenced as the question asks.
Reply: R, S, Q, P
(R: 2600 nM, S: 46 nM, Q: 24 nM, P: 5.4 nM)
